# Test system: DMS 114 small cell lung
# assay-overview: NCI tumour cell line growth inhibition, 48 h
readout: TGI

The molecule identified as COC(=O)c1ccc(/C=C2\N=C(C)OC2=O)cc1 registered its TGI at > 100 µM

// sample Nc1ccc(C(=O)NN2C(=O)C(Cl)C2c2ccccc2Cl)cc1 (stereo unspecified) , its TGI was 18.8 µM

Record N#CC(C(=O)/C(=N/Nc1nc(=S)[nH]n1N)C(C#N)c1ccccc1)c1ccccc1 (stereo unspecified) , field TGI: > 100 µM

The recorded TGI for Clc1ccc(-c2c(C3=NCCN3)nnn2-c2ccc(Cl)cc2)cc1 is 31.5 µM

TGI in this record for OCC1OC(n2cnc3c2NC=NC[C@H]3O)C(O)C1O (stereo partly specified) : > 450 µM

Query C=CCn1c(=O)n(CC=C)c(=O)n(CC=C)c1=O yields TGI of > 100 µM

# TGI (molecule: O=C1CSC(Cc2nc3ccccc3[nH]2)=N1 ) is > 59.2 µM

Entry CN(C)C(=O)OCOC(=O)N(C)C , TGI reported as > 100 µM

Value of measured TGI for the entry N#CC(/C(=N/NC(=O)C(=O)NN)C(=O)NC12CC3CC(CC(C3)C1)C2)c1ccccc1 (stereo unspecified) : > 100 µM

Looking up O=C(/C=C/c1ccccc1)/C=C/c1ccccc1 , I see its TGI listed as 52.9 µM

So for Cc1cccc(NC(=O)/C=C/c2ccc(N(CCC#N)CCC#N)cc2C)c1 , the logged TGI turned out to be > 100 µM

###

Assign TGI to each entry below.
# System: HCC-2998 colon
# assay-overview: NCI tumour cell line growth inhibition, 48 h
API: value field is a number in µM; no unit string.

The molecule COc1c(C)c2c(c(C)c1Cl)Oc1c(C=O)c(O)c(Cl)c(C)c1C(=O)O2 showed TGI equal to 69.8

Sample CCOC(=O)C1=C(C)N(N)C(=S)NC1c1ccc(C)cc1 (stereo unspecified) ; TGI observed: 27.1

Given item CC1=C(Br)C(Br)=C(C)S1=O , the value recorded as its TGI is 34.9

Record CCOC(=O)c1nc2c(Cl)c3ncccc3cc2[nH]c1=O , field TGI: 43.8

// CC1(C#N)CC(C)(C)C(/C=C2/CC(C)(C)C(/C=C3/OC(=N)CC3(C)C)=N2)=N1 (stereo unspecified) : TGI value = 93.3

Lab note: O=C(O)c1nc(-c2ccccn2)c(-c2ccccn2)nc1C(=O)O gave TGI of 3.45

###

# Test system: SN12C renal
# assay-overview: NCI tumour cell line growth inhibition, 48 h
readout: TGI

TGI of COc1ccc(C[N+]23C(CC[C@H]2c2ccccc2)CC[C@H]3c2ccccc2)cc1 (stereo not given in full) , assay on SN12C renal, is > 100 µM

# value of TGI, SN12C renal, item CCCS(=O)(=O)Nc1ccc(Nc2c3ccccc3nc3ccccc23)c(OC)c1 = 3.18 µM

Tested system SN12C renal; TGI recorded for COC(=O)[C@@H](NC(=O)[C@@H](OC)[C@@H]1Cc2cc3cc(OC4CC(OC5CC(O)C(O)C(C)O5)C(O)C(C)O4)c(C)c(O)c3c(O)c2C(=O)[C@H]1OC1CC(OC2CC(OC3CC(C)(O)C(O)C(C)O3)C(O)C(C)O2)C(O)C(C)O1)C(C)C (stereo not given in full) was > 32.5 µM

The reported TGI value, SN12C renal, for COc1cccc(OC)c1/C=C1\OC(=O)c2cccc(OC)c21 reads > 100 µM

TGI of O=C1CSC(Cc2nc3ccccc3[nH]2)=N1 , assay on SN12C renal, is 44.8 µM

Record Cc1cn(C2CC(N(O)Cc3ccccc3)C(CO)O2)c(=O)[nH]c1=O (stereo not given) has SN12C renal TGI equal to > 100 µM

Bench note, SN12C renal: N#C/C(=C\c1ccc(O)c(O)c1)C(N)=O , TGI reads > 100 µM

Form: item Cc1cc(NC(=O)c2ccc(C)c(Nc3nccc(-c4cccnc4)n3)c2)cc(-n2cnc(C)c2)c1 ; test system SN12C renal; TGI: 12.8 µM

The compound CCOC(=O)CC1c2ccc(O)cc2OC(=O)C1c1ccc([N+](=O)[O-])cc1 (stereo not given) on SN12C renal: TGI was 81.3 µM

// assay SN12C renal, entry COc1cc2c(cc1OC)C13CCN4CC5=CCOC6CC(=O)N2C1C6C5CC43O (stereo not given) , TGI value = > 100 µM

Query O=C(CN1CCCCC1)N1CCc2c([nH]c3ccccc23)C1c1cccnc1 (stereo not given) on SN12C renal; TGI returned: > 100 µM

The reported SN12C renal TGI of CCN1C(=O)N(CC)C2C1NC(=S)N2/N=C/C=C/c1cccs1 (stereo not given) is > 100 µM

TGI value, target or system SN12C renal, for N#CC(C#N)=c1[nH]c2cccc3c2-c2c(cccc2c3=C(C#N)C#N)[nH]1 : > 100 µM

For the compound O=C(O)c1nc(-c2ccccn2)c(-c2ccccn2)nc1C(=O)O , the measured TGI on SN12C renal was 24.6 µM

// compound CN=NN(C)C(=O)NC , assay SN12C renal, TGI value: > 100 µM

Summary line: CC1=C(C(=O)Nc2c(C)cccc2C)C(c2ccccc2Cl)C(C(=O)Nc2c(C)cccc2C)=C(C)N1 , SN12C renal, reported TGI = > 100 µM

# lookup: O=C(O)c1cccc(OCCO)c1 on SN12C renal, TGI = > 100 µM

# lookup: COC1=C(Br)[C@H](O)[C@@]2(C=C1Br)CC(C(=O)NCCCCCN=C(N)N)=NO2 on SN12C renal, TGI = > 10 µM

I looked up CN(C)C(=O)OCOC(=O)N(C)C and its TGI for SN12C renal was > 100 µM

Tested on SN12C renal, the item Cc1cccc2c1[C@]13OC(C)[C@]4(C)CC5OC(=O)[C@@]1(C)[C@@H]5[C@]34C(=O)O2 (stereo not given in full) showed TGI equal to > 100 µM

###

# System: A498 renal
# assay-overview: NCI tumour cell line growth inhibition, 48 h; in the data active means GI50 below about 0.43 µM; inactive means the rest
Your response should consist of one outcome taken from yes for active, no for inactive

Ask | Assay result, entry COc1ccc(CNc2c3ccccc3nc3ccccc23)cc1OC — outcome?
Reply | no

Ask | // param item: CCN(CC)CC(C)(C)C(=O)/C=C/c1ccc(Cl)c(Cl)c1 ; yields the recorded call
Reply | no

Ask | Record lookup: outcome of this test for Cc1c(C2Nc3ccccc3C2C)[nH]c2ccccc12 (configuration not stated) ?
Reply | no

Ask | Short answer needed: outcome of this test for CC(=O)Oc1ccc(Nc2c3ccccc3nc3ccccc23)cc1 ?
Reply | yes

Ask | Query: recorded result category for Cc1[nH]n(-c2cccc(Cl)c2)c(=O)c1/C=C1\C=Nc2ccc(Br)cc21 in this test
Reply | no

Ask | Answer briefly: the call reported for COc1ccc(-c2cc(-c3cccn3C)c(C#N)c(N)n2)cc1OC in this assay.
Reply | no

Ask | Short answer needed: outcome of this test for CCCCCc1c(C)[nH]c(/C=C2\N=C(c3ccc[nH]3)C=C2CC)c1C ?
Reply | yes

###

Exercise: state measured TGI for each of the molecules provided.
# System: MDA-MB-231 breast
# assay-overview: NCI tumour cell line growth inhibition, 48 h

Looking up COc1ccc2c(c1)CCc1c-2[nH]c2ccc(OC)cc12 , I found its TGI recorded as > 100 µM

Looking up CCOC(=O)CC1CCN(C(=O)c2ccccc2)C2Cc3c([nH]c4ccccc34)C12C[N+](=O)[O-] (stereo not given) , I see its TGI listed as > 100 µM

So, CN(C)C(=O)NCCN1CCCCCc2ccccc21 ? Its TGI was > 100 µM

Entry CC(C)=CCS(=O)c1ccccc1NC1=CC(=O)CC(C)(C)C1 (stereo not given) , TGI reported as > 100 µM

Lookup result for Cc1cccc2c1[C@]13OC(C)[C@]4(C)CC5OC(=O)[C@@]1(C)[C@@H]5[C@]34C(=O)O2 (stereo not given in full) ; measured TGI: > 100 µM

Notebook: CC1(C)OCC2OC3(c4nc(C#N)c(N)o4)OC(C)(C)OC3C2O1 (stereo not given) , TGI read as > 100 µM

Record summary for Cc1cc(NC(=O)c2ccc(C)c(Nc3nccc(-c4cccnc4)n3)c2)cc(-n2cnc(C)c2)c1 : reported TGI = 5.45 µM

The molecule listed as Cc1cccc(/C=N/NC(=S)NCCc2ccccn2)n1 shows TGI equal to > 100 µM

Sample O=C(Nc1ccc(Cl)cc1F)c1cc(Br)ccc1O ; TGI observed: 8.12 µM

Lab note: CN1CCc2c(Sc3ccc(C(=O)NO)cc3)c3ccccc3n2C1 gave TGI of 4.19 µM

###

# Test system: UO-31 renal
# assay-overview: NCI tumour cell line growth inhibition, 48 h
So I've got a bunch of compounds here, and I need their TGI values.

Sure, the documented TGI for CC(=O)OCC1OC(Nc2ncc(-c3ccc(C)cc3)s2)C(OC(C)=O)C(OC(C)=O)C1OC(C)=O (configuration not stated) is 41 µM

TGI in this record for CSC1(CC(=O)N(C)C)C(=O)Nc2ccccc21 (configuration not stated) : > 100 µM

Input Nc1nc(Nc2ccccc2)c2ncn(Cc3cc4c(cc3Br)OCO4)c2n1 . Output TGI: > 100 µM

Recorded TGI (compound O=C(Nc1ccc(Cl)cc1F)c1cc(Br)ccc1O ): 3.65 µM

Lab note: measured TGI of Cc1n(Cc2ccc3ccccc3c2)cc[n+]1Cc1ccc2ccccc2c1 was 22 µM

The compound listed as COn1cc(C=O)c2ccccc21 has a reported TGI of > 100 µM

GET /value?item= Nc1nc(Cl)cc(NCCO)n1 &field=TGI returns > 100 µM

What the record says about CCCCN1C=CN2c3nc4cc(C)c(C)cc4n3C(C(=O)OC)=C(C(=O)OC)C12 (configuration not stated) : TGI is > 100 µM

Looking up N#C/C(=C\c1ccc(O)c(O)c1)C(N)=O , I see its TGI listed as > 100 µM

Looking up COc1ccc(/C=c2/sc3n(c2=O)C(c2ccc(OC)c(OC)c2)C2=C(N=3)c3cc(F)ccc3OC2)cc1 (configuration not stated) , I see its TGI listed as > 77.7 µM

The recorded TGI for entry N#CC(/C(=N/NC(=O)C(=O)NN)C(=O)NC12CC3CC(CC(C3)C1)C2)c1ccccc1 (configuration not stated) equals > 100 µM

Looking up COc1ccc2c3c1O[C@H]1C(O)CCC4(O)[C@@H](C2)NCC[C@]314 (some centres not stated) , I found its TGI recorded as > 100 µM

Quick note, TGI for CCCCCc1c(C)[nH]c(/C=C2\N=C(c3ccc[nH]3)C=C2CC)c1C landed at 0.0357 µM

Notebook: COc1cc(/C=C2\C(=O)Nc3ccc(F)cc32)cc(OC)c1OC , TGI read as > 100 µM

// TGI lookup, compound = CCOC(=O)C1=C(Nc2cccc(OC)c2)OCC1=O , result: > 100 µM

Lab note: O=c1[nH]cc(COCC(F)(F)C(F)(F)C(F)(F)C(F)F)c(=O)[nH]1 gave TGI of > 100 µM

Short answer for N#Cc1sc2nc(/C=C3/C=CC=CC3=O)c(O)n2c1N : TGI was > 100 µM

# TGI (compound: CSC1=C(SC)SC(=C2SC3=C(SC(=C4SCCS4)S3)S2)S1 ) is > 100 µM

O=C(CCCN1CC=C(n2c(=O)[nH]c3ccccc32)CC1)c1ccc(F)cc1 has a reported TGI of > 100 µM

Looking up O=C(O)c1c(-c2nccc3ccccc23)[nH]c(-c2ccccc2)c1S(=O)(=O)O , I see its TGI listed as > 100 µM

In plain terms, CC1=C(C(=O)Nc2c(C)cccc2C)C(c2ccccc2Cl)C(C(=O)Nc2c(C)cccc2C)=C(C)N1 has a documented TGI of > 100 µM

O=C(N/N=C\c1cc(Br)ccc1O)c1ccncc1 yielded TGI of > 100 µM
